Ref: ChEMBL document CHEMBL4354811

Target: Hypoxia-inducible factor 1-alpha (Homo sapiens)
Assay: Inhibition of HIF1alpha transcriptional activity in hypoxia-induced human HCCLM3 cells co-transfected with luciferase reporter plasmid containing five copies of HREs and pRL-SV40 plasmid encoding Renilla luciferase at 10 uM incubated with compound under normoxia for 1 hr followed by hypoxia induction and measured after 24 hrs by HRE-dependent dual luciferase reporter gene assay relative to control
assay_readout: inhibition (%)
Output spec: scalar in %, unitless text.

>>> result_value("O=C(NCCc1ccccc1F)c1ccc(-c2cccc(F)c2)cn1")
55.3
>>> result_value("O=C(NCCc1ccccc1F)c1ccc(-c2ccoc2)cn1")
73.4

Task: Hi! What's the reported inhibition for "O=C(NCCc1ccccc1Cl)c1ncc(-c2ccccc2)o1" on Hypoxia-inducible factor 1-alpha (Homo sapiens)?
Output: 52.3

Task: Hi! What's the reported inhibition for "O=C(NCCc1ccccc1F)c1ccc(-c2cccs2)cn1" on Hypoxia-inducible factor 1-alpha (Homo sapiens)?
Output: 80

Task: Hi! What's the reported inhibition for "O=C(NCCc1ccccc1F)c1ccc(-c2ccco2)cn1" on Hypoxia-inducible factor 1-alpha (Homo sapiens)?
Output: 57.2

Task: Hi! What's the reported inhibition for "Cc1nc(C(=O)NCCCc2ccccc2)cs1" on Hypoxia-inducible factor 1-alpha (Homo sapiens)?
Output: 6.5

Task: Hi! What's the reported inhibition for "O=C(NCCc1ccncc1)c1csc(-c2ccccc2)n1" on Hypoxia-inducible factor 1-alpha (Homo sapiens)?
Output: 48.7

Task: Hi! What's the reported inhibition for "O=C(NCCc1ccccc1F)c1ccc(-c2ccccc2)cn1" on Hypoxia-inducible factor 1-alpha (Homo sapiens)?
Output: 91.4
